Recorded koff for the following binders
Molecular target: T1, TP-51 peptide (human)
T1 construct: Synthetic peptide from Pepscan; also called synthetic TDP-43 peptide (TP-51)
T1 peptide: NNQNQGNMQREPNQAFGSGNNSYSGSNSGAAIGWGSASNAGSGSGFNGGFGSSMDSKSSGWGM
Assay: SPR Biacore 8K, mAb captured by anti-human antibody, TP-51 injected, single-cycle kinetics
Please reply with the bare figure in s⁻¹ and do not write the unit itself.

- binder: "hACI-7069-633B12-Ab1_H32L27 (antibody, V domains shown) VH: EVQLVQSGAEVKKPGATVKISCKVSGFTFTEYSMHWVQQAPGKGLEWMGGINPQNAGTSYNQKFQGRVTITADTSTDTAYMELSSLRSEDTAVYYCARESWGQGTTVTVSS VL: DIVMTQSPLSLPVTPGEPASISCKSSQSLLHSDGKTYLNWLLQKPGQSPQRLIYLVSKLDSRVPDRFSGSGSGTDFTLKISRVEAEDVGVYYCFQGTHFPHTFGQGTKLEIK"
  test.readout: "koff"
  result.number: 0.00012

Return value of koff for input hACI-7069-633B12-Ab1_H28L22 (antibody, V domains shown) VH: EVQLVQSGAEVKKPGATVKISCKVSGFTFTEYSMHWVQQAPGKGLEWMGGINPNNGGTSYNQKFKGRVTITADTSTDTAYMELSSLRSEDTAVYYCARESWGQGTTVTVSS VL: DIVMTQSPLSLPVTPGEPASISCKSSQSLLHSDGKTYLNWLLQKPGQSPKRLIYLVSKLDSRVPDRFSGSGSGTDFTLKISRVEAEDVGVYYCWQGTHFPHTFGQGTKLEIK , no commentary.
0.0002

Reference source: patent US20250145695A1
